Property: inhibition; scope: individual compounds
# study.system: Solute carrier family 2, facilitated glucose transporter member 1 (Homo sapiens) (UniProt P11166)
# Sequence (P11166 whole entry): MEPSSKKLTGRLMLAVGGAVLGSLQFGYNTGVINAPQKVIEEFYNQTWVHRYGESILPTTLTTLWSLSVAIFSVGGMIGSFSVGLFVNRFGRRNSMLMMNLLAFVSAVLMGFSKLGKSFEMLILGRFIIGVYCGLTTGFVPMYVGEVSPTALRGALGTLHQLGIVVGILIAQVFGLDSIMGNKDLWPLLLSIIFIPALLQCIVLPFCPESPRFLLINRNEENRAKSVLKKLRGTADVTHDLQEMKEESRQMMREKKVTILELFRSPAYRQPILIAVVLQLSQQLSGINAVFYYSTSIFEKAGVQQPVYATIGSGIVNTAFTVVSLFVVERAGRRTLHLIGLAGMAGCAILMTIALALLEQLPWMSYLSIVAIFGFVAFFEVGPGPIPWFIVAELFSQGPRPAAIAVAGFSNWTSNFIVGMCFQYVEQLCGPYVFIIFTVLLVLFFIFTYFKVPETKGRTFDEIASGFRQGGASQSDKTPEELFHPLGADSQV
# protocol.summary: ST_JUDE_LEISH: Cytotoxicity at 2uM final concentration against transgenic Leishmania Mexicana promastigotes LmGLUT1 that are glucose transport deficient and complemented with the human glucose transporter GLUT1. Activity is measured by DNA content using SYBR green in vitro
# Assay type: functional
Express the result in % but write the number alone.

{"columns": ["compound", "inhibition [%]"],
 "data": [
  ["COc1c(C2CCN(CCCCNC(=O)c3ccc(-c4ccc(C#N)cc4)c(O)c3)CC2)ccc2c1CCCC2", -0.29],
  ["Nc1nc(-c2ccccn2)nc(-n2nc(-c3cccc(C(F)(F)F)c3)cc2N)n1", 3.56]
]}

Exam item: Form field: reported inhibition of CN1CCC(Oc2ccc(CN3CC[C@H](NC(=O)c4cc(F)cc(F)c4)C3)c3ccccc23)C1 (some centres undefined)
Marked response: 7.53

Exam item: What do we get for O=C(/C=C/c1ccc(Cl)c(Cl)c1)NCCCCN1CCCN(C(=O)Nc2ccc(F)c(Cl)c2)CC1 ?
Marked response: 3

Exam item: What do we get for CCOc1ncccc1CN1CCC(N2CCc3cc(NC(=O)c4ccco4)ccc32)C1 (centres undefined) ?
Marked response: 0.43

Exam item: What do we get for CCN(CCCN1CCCCC1)c1cc(C)nc(Nc2ccc(F)c(C(F)(F)F)c2)n1 ?
Marked response: -1.41

Numbers sourced from ChEMBL document CHEMBL3433997.
